# Tested on: CD2F1 mice, L1210 leukemia ip, survival T/C
# protocol-summary: NCI In Vivo Anticancer Drug Screen. Data for tumor model L1210 Leukemia (intraperitoneal) in CD2F1 (CDF1) mice
# measurement-parameters: endpoint: mean survival time; dose: 50.0 mg/kg/injection; schedule: Q04DX003 (ip); vehicle: saline; higher = longer survival
Toxic doses and inconclusive results are not listed.
readout-label: T/C

## Input What T/C value was documented for this compound, `CCN(CC)CC#CCCCCN(CC)CC` ?
## Output 94 % of control

## Input What T/C value was documented for this compound, `C[C@]12C=CC(=O)C=C1CC[C@@H]1[C@@H]2C(=O)C[C@@]2(C)[C@H]1CC[C@]2(O)C(=O)CO` ?
## Output 100 % of control

## Input What T/C value was documented for this compound, `CCN(CC)CCNC1CCCCC1` ?
## Output 100 % of control

## Input What T/C value was documented for this compound, `C#CCO` ?
## Output 103 % of control

## Input What T/C value was documented for this compound, `COC(=O)Nc1nc2ccc(C3(c4ccc(F)cc4)OCCO3)cc2[nH]1` ?
## Output 115 % of control

## Input What T/C value was documented for this compound, `CCCC(=O)NN=C(C)C` ?
## Output 107 % of control

## Input What T/C value was documented for this compound, `CN(C)/N=N/c1nc[nH]c1C(N)=O` ?
## Output 105 % of control

## Input What T/C value was documented for this compound, `C[N+](C)(C)c1cc2c(nn1)Nc1ccccc1S2` ?
## Output 117 % of control

## Input What T/C value was documented for this compound, `NS(=O)(=O)O` ?
## Output 102 % of control

---

# System: CD2F1 mice, L1210 leukemia ip, survival T/C
# protocol-summary: NCI In Vivo Anticancer Drug Screen. Data for tumor model L1210 Leukemia (intraperitoneal) in CD2F1 (CDF1) mice
# measurement-parameters: endpoint: median survival time; dose: 200.0 mg/kg/injection; schedule: Q01DX005 (ip); vehicle: saline
# Procedure: The antitumor activity of compounds was measured in mice bearing transplantable tumors. Survival or tumor size were measured and the results are expressed as the measurement made in the treated group (T) divided by the measurement made in the vehicle treated control group (C). The tumor model used in this assay is L1210 Leukemia (intraperitoneal) in CD2F1 (CDF1) mice
Inconclusive results and toxic doses are left out. Rule for the calls: active = survival T/C of 150% or more; inactive = T/C below 125% in these data.
Just give me one of these, please: active, inactive

## Input Hi, sorry to bother you, what did the test record for `CSc1nc2[nH]c(C)cc2c(=O)[nH]1` ?
## Output inactive

## Input Hi, sorry to bother you, what did the test record for O=c1[nH]cnc2c1nnn2C1OC(CO)C(O)C1O (centres undefined) ?
## Output active

## Input Hi, sorry to bother you, what did the test record for `CN1COc2c(n(C)c(=O)[nH]c2=O)C1` ?
## Output inactive

## Input Hi, sorry to bother you, what did the test record for `CN(CN1C(=O)CCC1=O)CN1C(=O)CCC1=O` ?
## Output inactive

---

# Tested on: CD2F1 mice, L1210 leukemia ip, survival T/C
# protocol-summary: NCI In Vivo Anticancer Drug Screen. Data for tumor model L1210 Leukemia (intraperitoneal) in CD2F1 (CDF1) mice
# measurement-parameters: endpoint: mean survival time; dose: 200.0 mg/kg/injection; schedule: Q04DX003 (ip); vehicle: saline; higher = longer survival
Toxic doses and inconclusive results are not listed.
readout-label: T/C

## Input What T/C value was documented for this molecule, `COc1cc2cc3c4cc(OC)c(OC)cc4cc[n+]3c(C)c2cc1OC` ?
## Output 122 % of control

## Input What T/C value was documented for this molecule, `O=C1NCCCN1O` ?
## Output 100 % of control

## Input What T/C value was documented for this molecule, CC(C)C(Br)C(Br)c1ccccc1 (centres undefined) ?
## Output 102 % of control

## Input What T/C value was documented for this molecule, `N/N=C(\N)c1ccc2ccc3cccnc3c2n1` ?
## Output 104 % of control

## Input What T/C value was documented for this molecule, NC(=Nc1ccccc1)Nc1ccccc1 (tested in a mixture with another compound) ?
## Output 97 % of control

## Input What T/C value was documented for this molecule, `COC(=O)CCC#N` ?
## Output 91 % of control

## Input What T/C value was documented for this molecule, `c1cc(C2CCOCC2)ccn1` ?
## Output 90 % of control

## Input What T/C value was documented for this molecule, `O=S1(=O)c2ccccc2C(=NO)c2ccccc21` ?
## Output 96 % of control

## Input What T/C value was documented for this molecule, `COc1ccc(N/C=C/C2=[N+](C)c3ccccc3C2(C)C)c(OC)c1` ?
## Output 89 % of control

---

# Test system: CD2F1 mice, L1210 leukemia ip, survival T/C
# protocol-summary: NCI In Vivo Anticancer Drug Screen. Data for tumor model L1210 Leukemia (intraperitoneal) in CD2F1 (CDF1) mice
# measurement-parameters: endpoint: mean survival time; dose: 100.0 mg/kg/injection; schedule: Q01DX001 (ip); vehicle: Klucel (hydroxypropylcellulose) (HPC); higher = longer survival
Inconclusive results and toxic doses are left out.
readout-label: T/C

## Input What T/C value was documented for this compound, `NC(N)=NC(N)=Nc1ccc(Cl)c(Cl)c1` ?
## Output 105 % of control

## Input What T/C value was documented for this compound, `ClCCCCC(Cl)(Cl)Cl` ?
## Output 101 % of control

## Input What T/C value was documented for this compound, `Nc1ccc(NC(=O)Nc2ccccc2)cc1` ?
## Output 88 % of control

## Input What T/C value was documented for this compound, `CCCCCCCCCCCCCCCOc1ccc2ccccc2c1` ?
## Output 102 % of control

## Input What T/C value was documented for this compound, `O=C(N/N=C/c1ccccc1)c1ccc(Cl)cc1Cl` ?
## Output 100 % of control

## Input What T/C value was documented for this compound, CCOC(=O)C1(C(=O)OCC)C(C)CC(O)N1C(=O)c1ccccc1[N+](=O)[O-] (stereo unspecified) ?
## Output 100 % of control

---

What T/C was measured for each of the following?
# Test system: CD2F1 mice, L1210 leukemia ip, survival T/C
# protocol-summary: NCI In Vivo Anticancer Drug Screen. Data for tumor model L1210 Leukemia (intraperitoneal) in CD2F1 (CDF1) mice
# measurement-parameters: endpoint: mean survival time; dose: 400.0 mg/kg/injection; schedule: Q01DX001 (ip); vehicle: saline with Tween-80; higher = longer survival
Inconclusive results and toxic doses are left out.

## Input What T/C value was documented for this molecule, COC(=O)CC1(C(=O)OC)Nc2ccccc2C(=O)O1 (stereo not given) ?
## Output 96 % of control

## Input What T/C value was documented for this molecule, `CCCCCCCCCCCCOC(=O)c1ccc([N+](=O)[O-])cc1` ?
## Output 91 % of control

## Input What T/C value was documented for this molecule, `COC(=O)Nc1nc2ccccc2[nH]1` ?
## Output 96 % of control

## Input What T/C value was documented for this molecule, `CCCCCOc1cc(C(C)=O)cc(OC)c1OC(=O)c1cc([N+](=O)[O-])cc([N+](=O)[O-])c1` ?
## Output 93 % of control

## Input What T/C value was documented for this molecule, `Cc1ccc(NC(=O)Nc2cccc(NC(=O)COc3ccc(Cl)cc3C(=O)O)c2)cc1S(=O)(=O)F` ?
## Output 89 % of control

---

# Tested on: CD2F1 mice, L1210 leukemia ip, survival T/C
# protocol-summary: NCI In Vivo Anticancer Drug Screen. Data for tumor model L1210 Leukemia (intraperitoneal) in CD2F1 (CDF1) mice
# measurement-parameters: endpoint: mean survival time; dose: 400.0 mg/kg/injection; schedule: Q01DX009 (ip); vehicle: saline with Tween-80; higher = longer survival
Inconclusive results and toxic doses are left out.
readout-label: T/C

## Input What T/C value was documented for this compound, CC(=O)OCC1OC(n2ncc3c(Nc4ccccc4)ncnc32)C(OC(C)=O)C1OC(C)=O (stereo unspecified) ?
## Output 100 % of control

## Input What T/C value was documented for this compound, `CC(=O)Nc1ccccc1-c1ccccc1` ?
## Output 103 % of control

## Input What T/C value was documented for this compound, O=c1[nH]c(=O)n(C2SC(CO)C(O)C2O)cc1F (stereo unspecified) ?
## Output 119 % of control

## Input What T/C value was documented for this compound, COc1ccc(C2C3C=CC(C3)C2C(=O)O)cc1 (stereo unspecified) ?
## Output 103 % of control

## Input What T/C value was documented for this compound, `S=C(S)Nc1ccc(Cc2ccc(NC(=S)S)cc2)cc1` ?
## Output 93 % of control

## Input What T/C value was documented for this compound, COC1OC(COC(C)=O)C(OC2OC(COC(C)=O)C(OC(C)=O)C(OC(C)=O)C2OC(C)=O)C(OC(C)=O)C1OC(C)=O (stereo unspecified) ?
## Output 106 % of control
